- TARGET UNDER TEST: T1, PDZD7_3, Q9H5P4
- T1 sequence (Q9H5P4 857-944, limits assumed, looked up): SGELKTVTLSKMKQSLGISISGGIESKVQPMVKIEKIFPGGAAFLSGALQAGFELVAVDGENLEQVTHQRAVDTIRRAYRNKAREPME
- PROTOCOL NOTES: holdup assay
- Parameters: key: below the threshold = too weak to quantify, mostly under pKd 3.1 to 4
- TEST PARAMETERS: plain residues with an end cap or a label only (N-terminal biotin on a linker: ttds)
MEASUREMENT LABEL: pKd
Answer with a number only.

QSARYRDTEL [TJP2, Q9UDY2]    3.69
IDNDTESTAL [ARHGAP17, Q68EM7]    4.25

Tell me its pKd given RSLEEEESQL [GRASP, Q7Z6J2] as the entry.
3.98

Tell me its pKd given PKTPPTDTSV [KIR3DL3, Q8N743] as the entry.
3.61

Tell me its pKd given GQDSREETQL [KCNT2, Q6UVM3] as the entry.
4.47

Tell me its pKd given SVWLRKETRV [CYSLTR2, Q9NS75] as the entry.
4.86

// data source = paper PMC9482650
